Tested on: C. elegans
assay procedure: microbe, parasite or virus in culture
cond: Caenorhabditis elegans, 0 h, read-out: Percentage of motility inhibition 0 h, Table S2, C. elegans SS assay, 110 μM, 0 h, averages of 4 data points

- compound: "COc1cc2c(cc1O)-c1cc3ccc(OC)c(OC)c3c[n+]1CC2 [Columbamine]"
  inhibition at 110 µM: "1%"
- compound: "COc1ccccc1OCC(O)CO (centres unmarked) [Guaifenesin]"
  inhibition at 110 µM: "46%"
- compound: "O=[N+]([O-])c1cncn1CCN1CCOCC1 [Nimorazole]"
  inhibition at 110 µM: "0%"
- compound: "O=C(/C=C/c1ccc(O)cc1)c1ccccc1 [4‐Hydroxychalcone]"
  inhibition at 110 µM: "0%"
- compound: "OC[C@H]1O[C@@H](Oc2ccc(O)cc2)[C@H](O)[C@@H](O)[C@@H]1O [Arbutin]"
  inhibition at 110 µM: "0%"

----------
System: C. elegans
assay procedure: microbe, parasite or virus in culture
cond: Caenorhabditis elegans, 0 h, read-out: Percentage of motility inhibition 0 h, Table S2, C. elegans SS assay, 110 μM, 0 h, averages of 4 data points

- compound: "CC(C)=CCC[C@](C)(O[C@@H]1O[C@H](CO)[C@@H](O)[C@H](O)[C@H]1O)[C@H]1CC[C@]2(C)[C@@H]1[C@H](O)C[C@@H]1[C@@]3(C)CC[C@H](O)C(C)(C)[C@@H]3[C@@H](O[C@@H]3O[C@H](CO)[C@@H](O)[C@H](O)[C@H]3O)C[C@]12C [Ginsenoside Rg1]"
  inhibition at 110 µM [%]: 0
- compound: "CC(C)=CCCC(C)CCO (stereo not shown)"
  inhibition at 110 µM [%]: 15
- compound: "C=C1C(=O)O[C@H]2[C@H]1CC/C(C)=C/CC[C@@]1(C)O[C@@H]21 [Parthenolide]"
  inhibition at 110 µM [%]: 6
- compound: "O=c1c(O[C@@H]2O[C@@H](CO)[C@H](O)[C@H]2O)c(-c2ccc(O)c(O)c2)oc2cc(O)cc(O)c12"
  inhibition at 110 µM [%]: 33
- compound: "c1ccc2c(c1)[nH]c1cnccc12"
  inhibition at 110 µM [%]: 0
- compound: "C#C[C@]1(O)CC[C@H]2[C@@H]3CCc4cc(O)ccc4[C@H]3CC[C@@]21C"
  inhibition at 110 µM [%]: 33
- compound: "Cc1ccc2c(Br)cc(Br)c(OC(=O)c3ccccc3)c2n1"
  inhibition at 110 µM [%]: 26

----------
System: C. elegans
assay procedure: microbe, parasite or virus in culture
cond: Caenorhabditis elegans, 24 h, read-out: Percentage of motility inhibition 24 h, Table S2, C. elegans SS assay, 110 μM, 24 h, averages of 4 data points
Reported inhibition at 110 µM values for a set of molecules
value kind: inhibition at 110 µM (%)

- molecule: "CC(C)(O)[C@@H]1[C@H]2OC(=O)[C@@H]1[C@]1(O)C[C@H]3O[C@]34C(=O)O[C@H]2[C@]14C"
  target or test system: "C. elegans"
  unit info: "%"
  measured result: 0
- molecule: "COc1cc(C(=O)O[C@H]2[C@@H]3C=CO[C@@H](O[C@@H]4O[C@H](CO)[C@@H](O)[C@H](O)[C@H]4O)[C@@H]3[C@@]3(CO)O[C@@H]23)ccc1O [Picroside II]"
  target or test system: "C. elegans"
  unit info: "%"
  measured result: 13
- molecule: "COc1c(-c2ccc(O)c(O)c2)oc2cc(O)cc(O)c2c1=O"
  target or test system: "C. elegans"
  unit info: "%"
  measured result: 16
- molecule: "COc1cc(-c2oc3cc(O)cc(O)c3c(=O)c2O)ccc1O"
  target or test system: "C. elegans"
  unit info: "%"
  measured result: 2
- molecule: "Cn1nnc(-c2ccc(-c3ccc(N4C[C@H](CO)OC4=O)cc3F)cn2)n1"
  target or test system: "C. elegans"
  unit info: "%"
  measured result: 12
- molecule: "CN1C(=O)CC[C@H]1c1cccnc1"
  target or test system: "C. elegans"
  unit info: "%"
  measured result: 16
- molecule: "CC1(C)CC[C@]2(C(=O)O)CC[C@]3(C)C(=CC[C@@H]4[C@@]5(C)CC[C@H](O)[C@@](C)(C=O)[C@@H]5CC[C@]43C)[C@@H]2C1"
  target or test system: "C. elegans"
  unit info: "%"
  measured result: 10

----------
Test system: C. elegans
assay procedure: microbe, parasite or virus in culture
cond: Caenorhabditis elegans, 24 h, read-out: Percentage of motility inhibition 24 h, Table S2, C. elegans SS assay, 110 μM, 24 h, averages of 4 data points

- molecule: "CC[C@@]1(O)C(=O)OCc2c1cc1n(c2=O)Cc2cc3c([N+](=O)[O-])cccc3nc2-1 [Rubitecan]"
  inhibition at 110 µM / %: 0
- molecule: "CC1(C)CC[C@]2(C(=O)O)CC[C@]3(C)C(=CC[C@@H]4[C@@]5(C)C[C@@H](O)[C@H](O)[C@@](C)(CO)[C@@H]5CC[C@]43C)[C@@H]2[C@@H]1O [Arjungenin]"
  inhibition at 110 µM / %: 36
- molecule: "CNC(=O)Oc1ccccc1OC(C)C [Propoxur]"
  inhibition at 110 µM / %: 9
- molecule: "O=C(/C=C/C=C/c1ccc2c(c1)OCO2)N1CCCCC1 [Piperine]"
  inhibition at 110 µM / %: 21

----------
System: C. elegans
cond: Table S2, C. elegans SS assay, 110 μM, 0 h, averages of 4 data points
Label rule, in plain words: Percentage of motility inhibition 0 h of 30% and up is Met, under 30% is Not met.

- molecule: "Oc1cnc2c(O)cccc2c1"
  group: "Not met"
- molecule: "C=C(C)[C@@H]1CC[C@]2(C(=O)O)CC[C@]3(C)[C@H](CC[C@@H]4[C@@]5(C)CC[C@H](O[C@@H]6OC[C@H](O)[C@H](O)[C@H]6O[C@@H]6O[C@@H](C)[C@H](O)[C@@H](O)[C@H]6O)[C@@](C)(CO)[C@@H]5CC[C@]43C)[C@@H]12 [Pulchinenoside A]"
  group: "Not met"
- molecule: "CN1[C@@H](CC(=O)c2ccccc2)CCC[C@H]1C[C@H](O)c1ccccc1.Cl [Lobeline (hydrochloride)]"
  group: "Not met"
- molecule: "COc1ccc(-c2oc3c(OC)c(OC)c(OC)c(OC)c3c(=O)c2OC)cc1OC"
  group: "Met"
- molecule: "COc1cc2c(cc1OC)C1Cc3ccc4c(c3CN1CC2)OCO4 (stereo not shown) [Tetrahydroepiberberine]"
  group: "Not met"
- molecule: "c1cncc([C@@H]2CCCCN2)c1 (racemic) [(±) Anabasine]"
  group: "Not met"
- molecule: "CN[C@@H]1[C@H](O[C@H]2[C@H](O[C@H]3[C@H](O)[C@@H](O)[C@H](N=C(N)N)[C@@H](O)[C@@H]3N=C(N)N)O[C@@H](C)[C@]2(O)C=O)O[C@@H](CO)[C@H](O)[C@H]1O.CN[C@@H]1[C@H](O[C@H]2[C@H](O[C@H]3[C@H](O)[C@@H](O)[C@H](N=C(N)N)[C@@H](O)[C@@H]3N=C(N)N)O[C@@H](C)[C@]2(O)C=O)O[C@@H](CO)[C@H](O)[C@H]1O.O=S(=O)(O)O.O=S(=O)(O)O.O=S(=O)(O)O [Streptomycin (sulfate)]"
  group: "Met"

----------
Test system: C. elegans
assay procedure: microbe, parasite or virus in culture
cond: Caenorhabditis elegans, 24 h, read-out: Percentage of motility inhibition 24 h, Table S2, C. elegans SS assay, 110 μM, 24 h, averages of 4 data points
Respond with class 1 for inhibition at 110 µM values of 4% and above, class 0 for values below.

- compound: "O=c1cc(-c2ccc(O)c(O)c2)oc2cc(O)cc(O)c12 [Luteolin]"
  target or test system: "C. elegans"
  group: "class 0"
- compound: "O=C(/C=C/c1ccccc1)c1ccccc1 [Trans-chalcone]"
  target or test system: "C. elegans"
  group: "class 1"
- compound: "CCc1nn(CCO)c(CC)c1Oc1cc(C#N)cc(C#N)c1 [Lersivirine]"
  target or test system: "C. elegans"
  group: "class 1"
- compound: "Cc1cn([C@@H]2C[C@@H](O)[C@H](CO)O2)c(=O)[nH]c1=O [Telbivudine]"
  target or test system: "C. elegans"
  group: "class 0"
- compound: "COC(=O)Nc1nc2ccc([S+]([O-])c3ccccc3)cc2[nH]1 (stereo not drawn) [Oxfendazole]"
  target or test system: "C. elegans"
  group: "class 1"
- compound: "C=C1C(=O)O[C@H]2[C@H]1CCC(C)=C1CC[C@@](C)(O)[C@@H]12 [Micheliolide]"
  target or test system: "C. elegans"
  group: "class 0"
- compound: "NCCS(=O)(=O)O [Taurine]"
  target or test system: "C. elegans"
  group: "class 0"
- compound: "C=CC(=C)CCC=C(C)C [Myrcene]"
  target or test system: "C. elegans"
  group: "class 1"
- compound: "CC=C1CN(C)C2Cc3c([nH]c4ccccc34)C(c3cc4[nH]c5c(c4cc3OC)CCN3CC4CC(CC)C3C5(C(=O)OC)C4)CC1C2C(=O)OC (stereo not drawn) [Voacamine]"
  target or test system: "C. elegans"
  group: "class 0"
- compound: "c1ccc2c(c1)[nH]c1cnccc12 [Norharmane]"
  target or test system: "C. elegans"
  group: "class 1"
- compound: "COc1ccc(-c2cc(=O)c3c(OC)c(OC)c(OC)c(OC)c3o2)cc1 [Tangeretin]"
  target or test system: "C. elegans"
  group: "class 1"
- compound: "C/C(=C\\C(=O)OCCCCCCCCC(=O)O)C[C@@H]1OC[C@H](C[C@@H]2O[C@H]2[C@@H](C)[C@H](C)O)[C@@H](O)[C@H]1O [Mupirocin]"
  target or test system: "C. elegans"
  group: "class 1"
- compound: "CS(=O)(=O)c1ccc([C@@H](O)[C@@H](CO)NC(=O)C(Cl)Cl)cc1 [Thiamphenicol]"
  target or test system: "C. elegans"
  group: "class 0"
- compound: "C=C[C@@H]1C2=CCOC(=O)C2=CO[C@H]1O[C@@H]1O[C@H](CO)[C@@H](O)[C@H](O)[C@H]1O [Gentiopicroside]"
  target or test system: "C. elegans"
  group: "class 1"
